Entry source: ChEMBL document CHEMBL3763029

System: Influenza A virus (A/Wyoming/03/2003(H3N2))
protocol: Binding affinity to Influenza A virus (A/Wyoming/03/2003(H3N2)) H3 hemagglutinin after 2 hrs by avidin-biotin-peroxidase complex method
Calls of active or inactive are those of the source. The rule behind the calls is not given here. Peptide text beside a SMILES is read from it. * marks the point of attachment. Biotinyl(3aR,4S,6aS) = O=C1N[C@H]2[C@H](CCCCC(=O)*)SC[C@H]2N1; Biotin = O=C1N[C@H]2[C@H](CS[C@H]2CCCCC(=O)*)N1
Possible outcomes: active, inactive

compound: CC(C)C[C@H](NC(=O)[C@H](C)NC(=O)[C@H](CCCNC(=N)N)NC(=O)[C@@H](NC(=O)[C@@H](N)CC(C)C)C(C)C)C(=O)N[C@@H](C)C(=O)N[C@@H](CC(C)C)C(=O)N[C@@H](CCCCNC(=O)CCCC[C@@H]1SC[C@H]2NC(=O)N[C@@H]12)C(N)=O (H-LVRALALK(Biotinyl(3aR,4S,6aS))-NH2)
classLabel: inactive
--
compound: CC(C)C[C@H](NC(=O)[C@H](C)NC(=O)[C@H](CC(C)C)NC(=O)[C@@H]1CCCN1C(=O)[C@H](CCCNC(=N)N)NC(=O)[C@@H](NC(=O)[C@@H](N)CC(=O)O)C(C)C)C(=O)N[C@@H](CCCCNC(=O)CCCC[C@@H]1SC[C@H]2NC(=O)N[C@@H]12)C(N)=O (H-DVRPLALK(Biotinyl(3aR,4S,6aS))-NH2)
classLabel: active
--
compound: CC(C)C[C@H](NC(=O)[C@H](C)NC(=O)[C@H](Cc1c[nH]c2ccccc12)NC(=O)[C@@H]1CCCN1C(=O)[C@H](CCCNC(=N)N)NC(=O)[C@@H](NC(=O)[C@@H](N)CC(C)C)C(C)C)C(=O)N[C@@H](CCCCNC(=O)CCCC[C@@H]1SC[C@H]2NC(=O)N[C@@H]12)C(N)=O (H-LVRPWALK(Biotinyl(3aR,4S,6aS))-NH2)
classLabel: active
--
compound: CC(C)C[C@H](NC(=O)[C@H](C)NC(=O)[C@H](CC(C)C)NC(=O)[C@H](Cc1cnc[nH]1)NC(=O)[C@H](CCCNC(=N)N)NC(=O)[C@@H](NC(=O)[C@@H](N)CC(C)C)C(C)C)C(=O)N[C@@H](CCCCNC(=O)CCCC[C@@H]1SC[C@H]2NC(=O)N[C@@H]12)C(N)=O (H-LVRHLALK(Biotinyl(3aR,4S,6aS))-NH2)
classLabel: active
--
compound: CC(C)C[C@H](NC(=O)[C@H](C)NC(=O)[C@H](CC(C)C)NC(=O)[C@@H]1CCCN1C(=O)[C@H](CCCNC(=N)N)NC(=O)[C@@H](NC(=O)[C@@H](N)CC(C)C)C(C)C)C(=O)N[C@@H](CCCCNC(=O)CCCC[C@@H]1SC[C@@H]2NC(=O)N[C@@H]21)C(N)=O (H-LVRPLALK(Biotin)-NH2)
classLabel: active
--
compound: CC(C)C[C@H](NC(=O)[C@H](C)NC(=O)[C@H](CC(C)C)NC(=O)[C@@H]1CCCN1C(=O)[C@H](C)NC(=O)[C@@H](NC(=O)[C@@H](N)CC(C)C)C(C)C)C(=O)N[C@@H](CCCCNC(=O)CCCC[C@@H]1SC[C@H]2NC(=O)N[C@@H]12)C(N)=O (H-LVAPLALK(Biotinyl(3aR,4S,6aS))-NH2)
classLabel: inactive
